Just for reference, patent US20200239555A1 is where these values come from.

target: T1, biotinylated native human ApoC3 (human, UniProt P02656 21-99, biotinylated (site not stated)); assay: SPR, IgG1 over biotinylated ApoC3 on SA chip, pH 7.4
T1 construct: also called biotinylated human ApoC3
T1 sequence (P02656 21-99): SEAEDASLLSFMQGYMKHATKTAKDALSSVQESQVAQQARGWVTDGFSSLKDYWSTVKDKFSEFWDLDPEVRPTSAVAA
OBSERVABLE: Ka (M⁻¹)
Give the value, in units of M⁻¹, as a plain number.

Answered cases to consult:
1) mAb4 (antibody, IgG1, V domains shown, Produced as full length IgG1 (kappa) in ExpiCHO-S cells; also called humanized anti-ApoC3 antibody mAb4) VH: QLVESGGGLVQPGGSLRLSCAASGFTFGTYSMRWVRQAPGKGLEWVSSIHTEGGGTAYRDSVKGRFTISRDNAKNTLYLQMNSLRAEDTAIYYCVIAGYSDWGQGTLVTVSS VL: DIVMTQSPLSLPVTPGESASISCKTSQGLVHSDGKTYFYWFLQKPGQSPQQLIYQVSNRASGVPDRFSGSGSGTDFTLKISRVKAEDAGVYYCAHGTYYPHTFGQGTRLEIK : 2.15e+11
2) mAb16 (antibody, IgG1, V domains shown, Produced as full length IgG1 (kappa) in ExpiCHO-S cells; also called humanized anti-ApoC3 antibody mAb16) VH: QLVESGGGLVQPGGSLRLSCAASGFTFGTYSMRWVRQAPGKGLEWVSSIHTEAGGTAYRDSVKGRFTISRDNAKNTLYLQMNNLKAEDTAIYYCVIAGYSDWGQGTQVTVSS VL: DIVMTQSPLSLPVTPGESASISCKTSQGLVHSGGKTYFYWFLQKPGQSPQQLIYQVSNRASGVPDRFTGSGSGTDFTLKISRVEAEDAGVYYCAHGTYYPHTFGSGTRLEIK : 1.46e+09

Value of Ka reported for the binder mAb11 (antibody, IgG1, V domains shown, Produced as full length IgG1 (kappa) in ExpiCHO-S cells; also called humanized anti-ApoC3 antibody mAb11) VH: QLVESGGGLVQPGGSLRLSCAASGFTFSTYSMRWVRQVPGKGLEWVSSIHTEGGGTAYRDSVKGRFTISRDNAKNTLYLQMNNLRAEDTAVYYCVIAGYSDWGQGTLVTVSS VL: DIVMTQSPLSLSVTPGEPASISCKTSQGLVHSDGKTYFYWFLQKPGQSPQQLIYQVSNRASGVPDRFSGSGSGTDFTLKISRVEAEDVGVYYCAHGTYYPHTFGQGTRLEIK is 5.77e+09

Value of Ka reported for the binder mAb19 (antibody, IgG1, V domains shown, Produced as full length IgG1 (kappa) in ExpiCHO-S cells; also called humanized anti-ApoC3 antibody mAb19) VH: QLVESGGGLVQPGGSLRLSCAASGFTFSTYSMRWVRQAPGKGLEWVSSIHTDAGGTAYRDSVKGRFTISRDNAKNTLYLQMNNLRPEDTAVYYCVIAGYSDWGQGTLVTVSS VL: DIVMTQSPGSLSVTPGEPASISCKTSQGLVHSGGKTYFYWFLQKPGQSPQQLIYQVSNRASGVPDRFTGSGSGTDFTLKISGVEAEDAGVYYCAQGTYYPHTFGQGTRLEIK is 2.21e+10

Value of Ka reported for the binder mAb12 (antibody, IgG1, V domains shown, Produced as full length IgG1 (kappa) in ExpiCHO-S cells; also called humanized anti-ApoC3 antibody mAb12) VH: QLVESGGGLVQPGGSLRLSCAASGFTFSTYSMRWVRQVPGKGLEWVSSIHTDAGGTAYRDSVKGRFTISRDNAKNTLYLQMNSLRPEDTAIYYCVIAGYSDWGQGTLVTVSS VL: DIVMTQSPLSLSVTPGEPASISCKTSQGLVHSDGKTYFYWFLQKPGQSPQQLIYQVSNRASGVPDRFTGSGSGTDFTLKISRVKAEDVGVYYCAHGTYYPHTFGQGTRLEIK is 1.53e+10
